target: DβH (Homo sapiens, UniProt P09172); construct: reaction mixture (total volume 500 μl) contained: cellular homogenate (75 μg total protein); host or cells: SK-N-SH cell homogenate; experiment: DβH inhibition cell assay (SK-N-SH cellular homogenates, tyramine to octopamine); format: biochemical; conditions: inhibitor 1 μM; SK-N-SH cell homogenate; read-out: DβH activity in % of Ctrl (1 μM)
Sequence (P09172 whole entry): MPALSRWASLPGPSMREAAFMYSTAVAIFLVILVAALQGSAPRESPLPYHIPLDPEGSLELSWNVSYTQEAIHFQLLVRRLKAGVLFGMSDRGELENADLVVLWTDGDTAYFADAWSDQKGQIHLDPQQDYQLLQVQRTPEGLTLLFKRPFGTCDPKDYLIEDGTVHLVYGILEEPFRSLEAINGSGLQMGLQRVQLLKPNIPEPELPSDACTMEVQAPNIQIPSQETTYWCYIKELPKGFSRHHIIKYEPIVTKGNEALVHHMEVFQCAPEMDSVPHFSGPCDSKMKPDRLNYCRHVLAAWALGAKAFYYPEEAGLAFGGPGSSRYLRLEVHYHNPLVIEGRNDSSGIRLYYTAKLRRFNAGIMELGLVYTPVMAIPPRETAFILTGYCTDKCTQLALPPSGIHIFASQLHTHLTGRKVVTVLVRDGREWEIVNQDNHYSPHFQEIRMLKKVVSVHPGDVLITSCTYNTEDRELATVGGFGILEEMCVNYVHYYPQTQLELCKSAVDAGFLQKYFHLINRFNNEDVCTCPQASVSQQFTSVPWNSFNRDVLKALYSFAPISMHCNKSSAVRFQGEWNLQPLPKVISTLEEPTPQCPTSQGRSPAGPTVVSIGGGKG
Record form. Attribute: remaining activity at 1 µM. Fill in for each entry.

Consider the molecule Fc1ccc(Br)c(F)c1[C@H]1Cc2c[nH]c(=S)n2C1 . State its measured remaining activity at 1 µM.
0%

Consider the molecule [2H]C1([2H])C2([2H])c3c[nH]c(=S)n3CC12c1cc(Cl)ccc1F (centres unmarked) . State its measured remaining activity at 1 µM.
0%

Consider the molecule NC(=S)N1CCC(c2ccoc2)C1 (centres unmarked) . State its measured remaining activity at 1 µM.
55.5%

Consider the molecule CNC(=S)N1C[C@@H]2C[C@]2(c2cc(F)cc(F)c2)C1 . State its measured remaining activity at 1 µM.
2.8%

Consider the molecule CNC(=S)N1CC(c2cc(F)cc(F)c2)CC1=O (centres unmarked) . State its measured remaining activity at 1 µM.
44.1%

###

Target: DβH (Homo sapiens)
Construct: reaction mixture (total volume 500 μl) contained: cellular homogenate (75 μg total protein); host or cells: SK-N-SH cell homogenate
Test: DβH inhibition cell assay (SK-N-SH cellular homogenates, tyramine to octopamine)
Assay type: biochemical
Conditions: inhibitor 1 μM; SK-N-SH cell homogenate; read-out: DβH activity in % of Ctrl (1 μM)
Procedure: The ability of a compound to inhibit DβH activity may be assessed using the following cell assay. […] . […] Fetal bovine serum was removed from cells for 4 h prior to collection. For the preparation of cellular homogenates, media was removed and cell monolayers were washed with 50 mM Tris-HCl pH 7.4. […] Total protein was quantified in cellular homogenates with BioRad Protein Assay (BioRad) using a standard curve of BSA (50-250 μg/mL). […]
remaining activity at 1 µM vs 8%: less than gives Met; not less than gives Not met.

Strictly below 8% in remaining activity at 1 µM? Fc1ccc([C@]23C[C@H]2c2c[nH]c(=S)n2C3)cc1F
Not met

Strictly below 8% in remaining activity at 1 µM? Fc1ccc(F)c([C@H]2Cc3c[nH]c(=S)n3C2)c1F
Met

Strictly below 8% in remaining activity at 1 µM? Fc1cccc(F)c1[C@H]1Cc2c[nH]c(=S)n2C1
Met

Strictly below 8% in remaining activity at 1 µM? NC(=S)N1CCC(c2cc(F)c(F)cc2F)C1 (stereo not drawn)
Not met

Strictly below 8% in remaining activity at 1 µM? Cc1[nH]c(=S)n2c1[C@@H]1C[C@]1(c1cc(F)cc(F)c1)C2
Not met

Strictly below 8% in remaining activity at 1 µM? Fc1cc(Cl)cc([C@]23C[C@H]2c2c[nH]c(=S)n2C3)c1
Met

Strictly below 8% in remaining activity at 1 µM? Fc1cc(F)cc([C@@H]2Cc3c[nH]c(=S)n3C2)c1
Not met

Strictly below 8% in remaining activity at 1 µM? CC1(c2ccccc2)CCN(C(N)=S)C1 (stereo not drawn)
Not met

Strictly below 8% in remaining activity at 1 µM? Fc1cc(F)c(F)c([C@@H]2Cc3c[nH]c(=S)n3C2)c1F
Not met

Strictly below 8% in remaining activity at 1 µM? Fc1cccc(Cl)c1[C@]12C[C@H]1c1c[nH]c(=S)n1C2
Not met

Strictly below 8% in remaining activity at 1 µM? Fc1ccc(Br)cc1[C@]12C[C@H]1c1c[nH]c(=S)n1C2
Met

Strictly below 8% in remaining activity at 1 µM? NC(=S)N1CCC(c2c(F)c(F)cc(F)c2F)C1 (stereo not drawn)
Met

Strictly below 8% in remaining activity at 1 µM? NC(=S)N1CC2CC2(c2cc(F)cc(F)c2)C1 (stereo not drawn)
Met

Strictly below 8% in remaining activity at 1 µM? NC(=S)N1CC[C@H](c2cc(F)cc(F)c2)C1
Not met

###

Record form. Attribute: remaining activity at 1 µM. Fill in for each entry.
biological target: DβH (Homo sapiens, UniProt P09172); construct: reaction mixture (total volume 500 μl) contained: cellular homogenate (75 μg total protein); host or cells: SK-N-SH cell homogenate; assay: DβH inhibition cell assay (SK-N-SH cellular homogenates, tyramine to octopamine); assay type: biochemical; details: inhibitor 1 μM; SK-N-SH cell homogenate; read-out: DβH activity in % of Ctrl (1 μM)
Quick note: give the figure in %, leave out the unit.

Consider the compound CNC(=S)N1C=CC(c2cc(F)cc(F)c2)C1 (stereo not shown) . State its measured remaining activity at 1 µM.
43

Consider the compound NC(=S)N1CCC(c2ccc(F)c(F)c2F)C1 (stereo not shown) . State its measured remaining activity at 1 µM.
27.4

Consider the compound Cc1ccc(C2CCN(C(N)=S)C2)s1 (stereo not shown) . State its measured remaining activity at 1 µM.
2.7

Consider the compound Fc1ccc(F)c([C@@H]2Cc3c[nH]c(=S)n3C2)c1F . State its measured remaining activity at 1 µM.
10.1

Consider the compound Fc1ccc(Cl)c(F)c1[C@@]12C[C@@H]1c1c[nH]c(=S)n1C2 . State its measured remaining activity at 1 µM.
10.3

Consider the compound NC(=S)N1CC2CC2(c2ccc(F)cc2F)C1 (stereo not shown) . State its measured remaining activity at 1 µM.
2.4

Consider the compound Fc1cc(F)c(F)c([C@H]2Cc3c[nH]c(=S)n3C2)c1F . State its measured remaining activity at 1 µM.
9.8

Consider the compound CNC(=S)N1CCC(c2c(F)c(F)cc(F)c2F)C1 (stereo not shown) . State its measured remaining activity at 1 µM.
1

Consider the compound Fc1ccc(Cl)c(F)c1[C@H]1Cc2c[nH]c(=S)n2C1 . State its measured remaining activity at 1 µM.
0

Consider the compound Fc1cc(F)cc(C2Cc3c[nH]c(=S)n3C2)c1 (stereo not shown) . State its measured remaining activity at 1 µM.
36.6

###

Record form. Attribute: remaining activity at 1 µM. Fill in for each entry.
target: DβH (Homo sapiens, UniProt P09172); construct: reaction mixture (total volume 500 μl) contained: cellular homogenate (75 μg total protein); host or cells: SK-N-SH cell homogenate; test: DβH inhibition cell assay (SK-N-SH cellular homogenates, tyramine to octopamine); format: biochemical; settings: inhibitor 1 μM; SK-N-SH cell homogenate; read-out: DβH activity in % of Ctrl (1 μM)
Show the value, then the unit it is measured in.

Consider the compound Fc1ccc(F)c([C@@]23C[C@@H]2c2c[nH]c(=S)n2C3)c1 [Example 57] . State its measured remaining activity at 1 µM.
58.6%

Consider the compound Fc1ccc(Cl)c(F)c1[C@@H]1Cc2c[nH]c(=S)n2C1 [Example 85] . State its measured remaining activity at 1 µM.
0%

Consider the compound Fc1c(Cl)cccc1[C@]12C[C@H]1c1c[nH]c(=S)n1C2 [Example 92] . State its measured remaining activity at 1 µM.
0%

Consider the compound Fc1cc(F)cc([C@]23C[C@H]2c2cn(C4CC4)c(=S)n2C3)c1 [Example 77] . State its measured remaining activity at 1 µM.
23%

Consider the compound Fc1cc(F)c(F)c([C@H]2Cc3c[nH]c(=S)n3C2)c1 [Example 83] . State its measured remaining activity at 1 µM.
33.1%

###

molecular target: DβH (Homo sapiens, UniProt P09172); construct: reaction mixture (total volume 500 μl) contained: cellular homogenate (75 μg total protein); host or cells: SK-N-SH cell homogenate; assay: DβH inhibition cell assay (SK-N-SH cellular homogenates, tyramine to octopamine); format: biochemical; conditions: inhibitor 10 μM; SK-N-SH cell homogenate; read-out: DβH activity in % of Ctrl (10 μM)
remaining activity at 10 µM vs 0.8%: less than gives yes; not less than gives no.

Strictly below 0.8% in remaining activity at 10 µM? NC(=S)N1CC[C@H](c2ccccc2)C1 [Example 11, (R)-3-phenylpyrrolidine-1-carbothioamide]
no

Strictly below 0.8% in remaining activity at 10 µM? NC(=S)N1C[C@H]2C[C@@]2(c2cc(F)cc(F)c2)C1 [Example 35]
yes

Strictly below 0.8% in remaining activity at 10 µM? Fc1ccc(F)c([C@@]23C[C@@H]2c2c[nH]c(=S)n2C3)c1 [Example 57]
no

Strictly below 0.8% in remaining activity at 10 µM? CC1(c2ccccc2)CCN(C(N)=S)C1 (stereo not drawn) [Example 7]
no

Strictly below 0.8% in remaining activity at 10 µM? NC(=S)N1CCC(C2CCCCC2)C1 (stereo not drawn) [Example 9, 3-cyclohexylpyrrolidine-1-carbothioamide]
no

Strictly below 0.8% in remaining activity at 10 µM? NC(=S)N1CC[C@@H](c2ccccc2)C1 [Example 6, (S)-3-phenylpyrrolidine-1-carbothioamide]
no

Strictly below 0.8% in remaining activity at 10 µM? NC(=S)N1CCC(c2ccccc2)C1 (stereo not drawn) [Example 1, 3-Phenylpyrrolidine-1-carbothioamide]
no

Strictly below 0.8% in remaining activity at 10 µM? Cc1ccc(C2CCN(C(N)=S)C2)s1 (stereo not drawn) [Example 10]
yes
